Biological target: Large subunit-rSCFV5 fusion protein
Sequence (chain, as listed by the source): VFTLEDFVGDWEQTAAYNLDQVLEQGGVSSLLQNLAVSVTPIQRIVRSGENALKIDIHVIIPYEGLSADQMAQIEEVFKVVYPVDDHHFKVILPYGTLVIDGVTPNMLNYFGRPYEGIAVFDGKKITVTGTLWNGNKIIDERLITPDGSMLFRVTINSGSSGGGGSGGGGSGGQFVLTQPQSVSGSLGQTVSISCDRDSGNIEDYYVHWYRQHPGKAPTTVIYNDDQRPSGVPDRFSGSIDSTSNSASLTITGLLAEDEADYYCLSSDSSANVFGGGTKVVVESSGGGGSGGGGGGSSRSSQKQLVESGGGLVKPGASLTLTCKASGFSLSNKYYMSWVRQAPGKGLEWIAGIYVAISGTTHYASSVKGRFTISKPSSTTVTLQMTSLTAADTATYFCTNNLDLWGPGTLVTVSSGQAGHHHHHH
Test: cell-based or functional assay
Metric: RLU, PCT- (RLU)
Answers are plain numbers, in RLU.

Here is how some binders turned out for RLU, PCT-.
Q: RLU, PCT- lookup needed for VEGYRLFEKKL (peptide, part only; not given: rSCFV18 scFv part, part only) [rSCFV18-small subunit mutant fusion protein RB149] , thanks.
Result: 3590

Q: RLU, PCT- lookup needed for VEGYRLFNRKW (peptide, part only; not given: rSCFV18 scFv part, part only) [rSCFV18-small subunit mutant fusion protein RB223] , thanks.
Result: 1100

# map each binder to its RLU, PCT-
1. VEGYRLFEKVS (peptide, part only; not given: rSCFV18 scFv part, part only) [rSCFV18-small subunit mutant fusion protein RC-042]
2. VEGYRLFERKS (peptide, part only; not given: rSCFV18 scFv part, part only) [rSCFV18-small subunit mutant fusion protein RC-145]

Result:
1: 593; 2: 808

From: patent EP4700040A1
